Assay: label from the status in PepcDB records
Measured parameter: protein production

{"columns": ["Ordered residues", "Result"],
 "data": [
  ["MRIEVVNVSHIFHRGTPLEKKALENVSLVINEGECLLVAGNTGSGKSTLLQIVAGLIEPTSGDVLYDGERKKGYEIRRNIGIAFQYPEDQFFAERVFDEVAFAVKNFYPDRDPVPLVKKAMEFVGLDFDSFKDRVPFFLSGGEKRRVAIASVIVHEPDILILDEPLVGLDREGKTDLLRIVEKWKTLGKTVILISHDIETVINHVDRVVVLEKGKKVFDGTRMEFLEKYDPRFFTSKMLVMRRLVLKGEDPFSMSDDELLERVCNS", "not failed"],
  ["IPLEQGIEFLSVNVEEDSPVVGKKLKDLPLPRDSIIAAIVRGGVLVVPRGDTEILSGDKLYVIVSAEAKETVEETLLGR", "not failed"]
]}
